Target: T1, RBFOX1 RRM RbFoxmut (Fox-RRM*) (Homo sapiens, UniProt Q9NWB1 109-208, R118D;E147R;N151S;E152T)
T1 sequence: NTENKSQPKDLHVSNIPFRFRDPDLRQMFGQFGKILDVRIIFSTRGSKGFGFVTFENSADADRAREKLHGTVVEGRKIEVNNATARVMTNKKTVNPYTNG
Test: EMSA; HiTS-Eq, 1 nM pool, 10 min; buffer printed only for the single-RNA assays: 10 mM Tris pH 7.5, 150 mM NaCl, 3.4 mM EDTA, 0.001% NP-40, 30 C
Conditions: tags: His6 N-terminal (pET28a); label: 5' 32P
The full ranking holds about 16,000 sequences; the median of “ka relative to ugcaugu” is about 0.096, and the highest 2% start at about 0.35. The list comes from a sample in which the highest values are over-represented; it also holds close analogues and randomly drawn sequences.
observable: binding signal

# count of solved cases: 3
| binder | binding signal |
| --- | --- |
| GCAUGCU (DNA:RNA) RNA: GGGAGACCGGAAUUCAGAUUGUCCGCAUGCUUUAAAUCCCGUCGUAGCCACCA DNA 1: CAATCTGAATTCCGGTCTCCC DNA 2: TGGTGGCTACGACGGGATT | 0.736 KA relative to UGCAUGU |
| GGCAUGC (DNA:RNA) RNA: GGGAGACCGGAAUUCAGAUUGUCCGGCAUGCUUAAAUCCCGUCGUAGCCACCA DNA 1: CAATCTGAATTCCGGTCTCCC DNA 2: TGGTGGCTACGACGGGATT | 0.739 KA relative to UGCAUGU |
| CGGGGCG (DNA:RNA) RNA: GGGAGACCGGAAUUCAGAUUGUCCCGGGGCGUUAAAUCCCGUCGUAGCCACCA DNA 1: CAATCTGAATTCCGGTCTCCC DNA 2: TGGTGGCTACGACGGGATT | 0.16 KA relative to UGCAUGU |

Shifting focus to the binder that follows.
*Q* # get_value(readout='binding signal', item= GAAGAAU (DNA:RNA) RNA: GGGAGACCGGAAUUCAGAUUGUCCGAAGAAUUUAAAUCCCGUCGUAGCCACCA DNA 1: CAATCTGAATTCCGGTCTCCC DNA 2: TGGTGGCTACGACGGGATT )
*A* 0.0873 KA relative to UGCAUGU
